Recorded melting point for the following compounds

given_smiles=C=CCn1c(C)nc2c3c(c(C(=O)OC)cc21)C(=O)CC1(Cc2ccccc2C1)N3 observed_measurement="216 to 217 °C"

Returns the measured melting point for the input compound. Input: COc1ccc(C=O)c(-c2ccc(O[Si](C)(C)C(C)(C)C)cc2)c1O
103 to 106 °C

Returns the measured melting point for the input compound. Input: Cc1nc(N)sc1-c1ccnc(Nc2cccc(S(=O)(=O)N3CCOCC3)c2)n1
215 to 216 °C

====

Recorded melting point for the following compounds

compound=O=C1OC(=Cc2c[nH]c3ccccc23)C(=O)N1Cc1cc(C(F)(F)F)cc(C(F)(F)F)c1 observed_measurement="145 to 146 °C"
compound="CCCN1CCCC1Cc1cccc(NC(N)=O)c1 (configuration not stated)" observed_measurement="101 to 104 °C"
compound=CN1CCN(C(=O)[C@H](CC(N)=O)NC(=O)CCc2ccc(OCc3ccccc3)cc2OCc2ccccc2)CC1 observed_measurement="121 to 123 °C"
compound=CCCCOc1cc(C(=O)NCC#N)cc(Cl)n1 observed_measurement="72 to 73 °C"
compound=Cc1c(NCCN2C(=O)c3ccccc3C2=O)c(=O)n(C)c(=O)n1C observed_measurement="178 to 180 °C"
compound=Cc1c(C#N)sc2nc(-c3ccccc3)nc(N3CCNCC3)c12 observed_measurement="251 to 253 °C"
compound=COc1cc(Nc2nc3cccc(-c4ccccc4)c3o2)cc(OC)c1OC observed_measurement="182 to 185 °C"
compound=N#CCCNC(=O)c1cccc(-c2ccc3c(c2)N(Cc2ccc(Cl)cc2Cl)CC3)c1 observed_measurement="148 to 149 °C"
compound=COc1ccc(/C=C/c2nc3c(c(=O)n(C)c(=O)n3C)n2C)c(OC)c1C observed_measurement="253 to 254 °C"
compound=CCN(CC)Cc1ccc(C(N)=O)o1 observed_measurement="164 to 165 °C"

Returns the measured melting point for the input compound. Input: O=C(O)c1cn(-c2cc([N+](=O)[O-])c(F)cc2F)c2c(F)c(F)c(F)cc2c1=O
245 to 255 °C

Returns the measured melting point for the input compound. Input: CC(C)c1cc2ncsc2cc1SC1=C(O)CC(CCc2ccc(F)cc2)(C(C)C)OC1=O (configuration not stated)
104 to 105 °C

====

Recorded melting point for the following molecules

Example cases with answers are listed next.
molecule="NC(c1ccccc1CNc1ccnc2cc(Cl)ccc12)c1ccnc2cc(Cl)ccc12 (stereo unspecified)" observed_measurement="> 250 °C"
molecule=COCCOc1nc(Cl)ncc1Cc1ccc(C)nc1 observed_measurement="50 to 52 °C"
molecule="CCOCCc1cc(C)c(OCCN2C(C)C(Br)=C(C(N)=O)N2C)c(C)c1 (stereo unspecified)" observed_measurement="112 to 114 °C"
molecule=O=C(Nc1ccc(-n2nc(C(F)(F)F)cc2-c2cccnc2)cc1)c1ccccc1F observed_measurement="138 to 140 °C"
molecule="O=C(Nc1cccc2c(=O)cc(C(=O)O)oc12)c1ccc2c(c1)CC(CCCc1ccccc1)O2 (stereo unspecified)" observed_measurement="184 to 185 °C"

Returns the measured melting point for the input molecule. Input: COC(=O)c1cc(I)ccc1N(C)S(C)(=O)=O
105 to 106 °C

Returns the measured melting point for the input molecule. Input: COc1cccc(Cc2ccc(-c3cnn4c(O)ncnc34)cc2)c1
264 to 268 °C
